experiment: solvent given as SMILES; details: in CCCO
readoutName: emission maximum (nm)
# number only, unit nm dropped from output

Some molecules with known emission maximum results, for comparison:
- molecule: "C[n+]1ccc(/C=C/c2ccc([O-])cc2)cc1"
  units: "nm"
  emission maximum: 587
- molecule: "OCC1O[C@@H](Cc2cc(O)cc(/C=C/c3ccc(O)c(O)c3)c2)[C@H](O)[C@@H](O)[C@@H]1O (some centres undefined)"
  units: "nm"
  emission maximum: 386
- molecule: "COc1cc(/C=C/c2cc[n+](Cc3ccc(Br)cc3)cc2)ccc1O"
  units: "nm"
  emission maximum: 559

Tell me measured emission maximum for CCc1ccc(/C=C/c2ccc(-c3nnc(-c4ccc(-c5cc6ccccc6s5)cc4)o3)cc2)cc1 please.
422

The measurements presented in this section are drawn from the Deep4Chem optical property database.
